Values compiled from patent US11964988B2.

target-desc: RET kinase V804M (Homo sapiens, UniProt P07949, V804M)
Sequence (P07949 29-1114 V804M): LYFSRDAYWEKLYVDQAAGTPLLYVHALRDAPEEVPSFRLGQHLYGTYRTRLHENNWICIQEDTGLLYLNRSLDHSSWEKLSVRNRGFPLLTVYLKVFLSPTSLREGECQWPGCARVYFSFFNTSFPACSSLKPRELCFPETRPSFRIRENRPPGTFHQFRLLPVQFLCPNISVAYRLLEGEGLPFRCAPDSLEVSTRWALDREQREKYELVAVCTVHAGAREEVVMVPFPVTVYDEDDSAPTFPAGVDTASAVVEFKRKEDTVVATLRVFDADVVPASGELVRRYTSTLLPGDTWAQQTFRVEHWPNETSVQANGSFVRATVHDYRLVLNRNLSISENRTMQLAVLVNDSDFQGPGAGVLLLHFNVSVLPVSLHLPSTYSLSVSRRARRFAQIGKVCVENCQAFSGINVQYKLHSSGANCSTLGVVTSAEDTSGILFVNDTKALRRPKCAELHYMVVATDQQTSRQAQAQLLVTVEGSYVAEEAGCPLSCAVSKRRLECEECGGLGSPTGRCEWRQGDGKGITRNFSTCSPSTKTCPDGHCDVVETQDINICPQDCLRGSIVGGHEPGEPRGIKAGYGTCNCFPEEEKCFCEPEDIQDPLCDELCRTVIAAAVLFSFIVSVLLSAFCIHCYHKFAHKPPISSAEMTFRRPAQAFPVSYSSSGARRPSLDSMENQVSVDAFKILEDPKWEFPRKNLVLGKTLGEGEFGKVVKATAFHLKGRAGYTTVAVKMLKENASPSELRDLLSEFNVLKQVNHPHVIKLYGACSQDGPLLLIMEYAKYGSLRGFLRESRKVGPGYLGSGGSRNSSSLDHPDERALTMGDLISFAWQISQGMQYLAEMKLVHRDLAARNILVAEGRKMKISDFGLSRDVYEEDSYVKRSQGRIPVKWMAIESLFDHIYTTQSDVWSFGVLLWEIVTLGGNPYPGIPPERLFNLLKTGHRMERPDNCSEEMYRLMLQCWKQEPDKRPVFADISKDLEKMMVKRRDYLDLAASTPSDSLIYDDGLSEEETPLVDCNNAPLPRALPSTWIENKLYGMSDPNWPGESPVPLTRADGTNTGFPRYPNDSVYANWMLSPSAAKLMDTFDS
assay: RET Enzyme Assay (CisBio HTRF KinEASE-TK), V804M
Assay type: biochemical
experimental-conditions: read-out: RET V804M Enz FRET IC50
result-type: log10 IC50 (log10 of the value in nM)
Values reflect log10 of reported IC50 (nM).

These recorded examples may help you get a feel for the data.
molecule: CC1(n2c3c(c4c(N)ncnc42)-c2noc(C4CC4)c2[C@H](O)CC3)CC1
target-desc: RET kinase V804M (Homo sapiens, UniProt P07949, V804M)
log10 IC50: 1.18

molecule: CC(C)n1c2c(c3c(N)ncnc31)-c1cc3ccc(C(=O)Nc4ccn(CCN5CCOCC5)n4)cc3n1CCC2
target-desc: RET kinase V804M (Homo sapiens, UniProt P07949, V804M)
log10 IC50: 3.80

molecule: CC1Cc2c(c3c(N)ncnc3n2C(C)C)-c2noc(C3CC3)c2C1=O (stereo not shown)
target-desc: RET kinase V804M (Homo sapiens, UniProt P07949, V804M)
log10 IC50: 1.99

molecule: CC(C)n1c2c(c3c(N)ncnc31)-c1noc(C3CC3)c1CN(CCO)C2 [Example 40, 2,2,2-trifluoroacetate]
target-desc: RET kinase V804M (Homo sapiens, UniProt P07949, V804M)
log10 IC50: 3.34

molecule: Nc1ncnc2c1c1c(n2C(CF)CF)CCC(O)c2c-1noc2C1CC1 (stereo not shown)
target-desc: RET kinase V804M (Homo sapiens, UniProt P07949, V804M)
log10 IC50: 1.58

// batch mode: one log10 IC50 value per listed entry
1. CC(C)n1c2c(c3c(N)ncnc31)-c1noc(C3CC3)c1C(=O)N(Cc1ccccc1)C2
2. Nc1ncnc2c1c1c(n2[C@H]2C[C@@H](CO)C2)CCC(O)c2c-1noc2C1CC1 (stereo partly shown)
3. CC(C)n1c2c(c3c(N)ncnc31)-c1noc(C3CC3)c1CN(S(C)(=O)=O)C2 [Example 35, 2,2,2-trifluoroacetate]

1. 2.53
2. 2.74
3. 2.06

// input: 7 molecules below; output: log10 IC50 for each
1. Nc1ncnc2c1c1c(n2C2CCOC2)CCC(=O)c2c-1noc2C1CC1 (stereo not shown)
2. CC(C)n1c2c(c3c(N)ncnc31)-c1noc(C3CC3)c1S(=O)(=O)CC2 [Example 23, 2,2,2-trifluoroacetate]
3. CC(C)n1c2c(c3c(N)ncnc31)-c1noc(C3CC3)c1CN(C(=O)C1CC1)C2
4. COC1CCc2c(c3c(N)ncnc3n2C(C)C)-c2noc(C3CC3)c21 (racemic)
5. COc1ccc(-n2c3c(c4c(N)ncnc42)-c2noc(C4CC4)c2C(O)CC3)cn1 (stereo not shown) [Example 114, 2,2,2-trifluoroacetate]
6. C[C@H](n1c2c(c3c(N)ncnc31)-c1noc(C3CC3)c1[C@@H](O)CC2)C(F)(F)F (single isomer, unassigned) [Example 146, 2,2,2-trifluoroacetate]
7. CC(C)n1c2c(c3c(N)ncnc31)-c1noc(C3CC3)c1[C@@H](O)CC2 (single isomer, unassigned)

1: 2.62; 2: 2.28; 3: 3.49; 4: 1.53; 5: 3.02; 6: 1.94; 7: 1.61

Need log10 IC50 of CC(n1c2c(c3c(N)ncnc31)-c1noc(C3CC3)c1C(O)CC2)C(F)(F)F (stereo not shown) , thanks.
1.61
